- ASSAY_OVERVIEW: qHTS RealTime-Glo MT Cell Viability Assay in HEK293 cells - 32 hour (AID 1224868); also: nearly all actives have a fitted effect of over 50% in size; also: potency is read from the fitted curve at half-maximal effect
- TEST_CONTEXT: RealTime-Glo luminescence; series mostly up to 76.8 µM
Inconclusive results are not listed. Activity calls are given as the source filed them. Calls follow the shape of the dose curve; as a rule, active = well fitted cell-killing curve with a large enough effect in the repeat runs; inconclusive = weak or mixed curves, or effect the other way; inactive = flat fitted curve, though single readings scatter.

STRUCTURE_NOTATION: O=C1c2c(O)cccc2Cc2cccc(O)c21
Potency: inactive

STRUCTURE_NOTATION: CC(O)(P(=O)(O)O)P(=O)(O)O
Potency: inactive

STRUCTURE_NOTATION: Nc1c(N=Nc2ccc(-c3ccc(N=Nc4cc(S(=O)(=O)O)c5ccccc5c4N)cc3)cc2)cc(S(=O)(=O)O)c2ccccc12
Potency: 38.9 µM (active)

STRUCTURE_NOTATION: NC(=O)c1cccnc1
Potency: inactive

STRUCTURE_NOTATION: CN(N=O)C(=O)N[C@@H]1[C@@H](O)[C@H](O)[C@@H](CO)O[C@@H]1O
Potency: inactive

STRUCTURE_NOTATION: O=C1NC(=O)C(c2ccccc2)(c2ccccc2)N1
Potency: inactive

STRUCTURE_NOTATION: CN1CCC[C@H]1c1cccnc1
Potency: inactive

STRUCTURE_NOTATION: CCCCOC(=O)c1ccc(O)cc1
Potency: 24.8 µM (active)

STRUCTURE_NOTATION: COc1ccc(OC(F)(F)F)cc1CN[C@H]1CCCN[C@H]1c1ccccc1
Potency: 43.6 µM (active)

STRUCTURE_NOTATION: COc1ccc2cc(S(=O)(=O)N[C@H](CC(=O)N[C@H](Cc3ccc(CN4[C@H](C)CCC[C@@H]4C)cc3)C(=O)N(C)C(C)C)c3ccc4c(c3)OCO4)ccc2c1
Potency: 26.1 µM (active)

STRUCTURE_NOTATION: CC(C)c1c(C(=O)Nc2ccccc2)c(-c2ccccc2)c(-c2ccc(F)cc2)n1CC[C@@H](O)C[C@@H](O)CC(=O)O
Potency: inactive

====

- ASSAY_OVERVIEW: qHTS assay to identify small molecule agonists of the estrogen receptor alpha (ER-alpha) signaling pathway in the presence of an antagonist - cell viability counter screen (AID 1259386);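 also: cells exposed to compounds for 22 h at 37 °C before the viability read; nearly all actives have a fitted effect of over 30% in size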
- TEST_CONTEXT: VM7Luc4E2 viability, CellTiter-Fluor fluorescence, 22 h; series mostly up to 92.4 µM
- From the text: National Center for Advancing Translational Sciences [NCATS] NIH Chemical Genomics Center [NCGC] U.S. Environmental Protection Agency [EPA] National Institutes of Environmental Health Sciences [NIEHS] National Toxicology Program [NTP] U.S. Food and Drug Administration [FDA] Estrogen receptor (ER), a member of nuclear hormone receptor plays an important role in development, metabolic homeostasis and reproduction. […]
Results filed as inconclusive are left out. Calls of active or inactive are those of the source. The call rests on the fitted dose curve; in most records, active means well fitted cell-killing curve with a large enough effect in the repeat runs; inconclusive means weak or mixed curves, or effect the other way; inactive means no such curve, though single readings can be large or run the other way.
Labels: true (1) for active, false (0) for inactive

COMPOUND: Cc1cn([C@H]2C=C[C@@H](CO)O2)c(=O)[nH]c1=O
CLASS_ASSIGNMENT: false (0)

COMPOUND: Cc1cc(=O)oc2cc(O)ccc12
CLASS_ASSIGNMENT: false (0)

COMPOUND: NS(=O)(=O)O
CLASS_ASSIGNMENT: false (0)

COMPOUND: OC[C@H]1O[C@H](O[C@]2(CCl)O[C@H](CCl)[C@@H](O)[C@@H]2O)[C@H](O)[C@@H](O)[C@H]1Cl
CLASS_ASSIGNMENT: false (0)

COMPOUND: O=C(Nc1ncc([N+](=O)[O-])s1)c1cccs1
CLASS_ASSIGNMENT: true (1)

COMPOUND: Cc1cccc(C)c1
CLASS_ASSIGNMENT: false (0)

COMPOUND: Nc1ccc(O)c([N+](=O)[O-])c1
CLASS_ASSIGNMENT: true (1)

COMPOUND: CC(O)(P(=O)(O)O)P(=O)(O)O
CLASS_ASSIGNMENT: false (0)

COMPOUND: CN(C)CCOC(C)(c1ccccc1)c1ccccn1 (stereo unspecified)
CLASS_ASSIGNMENT: false (0)

COMPOUND: CC12CCC(CC1)C(C)(C)O2
CLASS_ASSIGNMENT: false (0)

COMPOUND: CC(C)c1c(C(=O)Nc2ccccc2)c(-c2ccccc2)c(-c2ccc(F)cc2)n1CC[C@@H](O)C[C@@H](O)CC(=O)O
CLASS_ASSIGNMENT: false (0)

COMPOUND: CCCCC(CC)C(=O)O (stereo unspecified)
CLASS_ASSIGNMENT: false (0)

COMPOUND: O=C1NC(=O)C(c2ccccc2)(c2ccccc2)N1
CLASS_ASSIGNMENT: false (0)

COMPOUND: Oc1ccccc1
CLASS_ASSIGNMENT: false (0)

COMPOUND: CCOC(N)=O
CLASS_ASSIGNMENT: false (0)

COMPOUND: CC(=O)Nc1c(I)c(NC(C)=O)c(I)c(C(=O)O)c1I
CLASS_ASSIGNMENT: false (0)

COMPOUND: Nc1ccc([N+](=O)[O-])cc1O
CLASS_ASSIGNMENT: true (1)

COMPOUND: Nc1c(N=Nc2ccc(-c3ccc(N=Nc4cc(S(=O)(=O)O)c5ccccc5c4N)cc3)cc2)cc(S(=O)(=O)O)c2ccccc12
CLASS_ASSIGNMENT: true (1)

COMPOUND: CCCc1cc(=O)[nH]c(=S)[nH]1
CLASS_ASSIGNMENT: false (0)

COMPOUND: COc1ccc(C(Cl)=C(c2ccc(OC)cc2)c2ccc(OC)cc2)cc1
CLASS_ASSIGNMENT: false (0)

COMPOUND: CCOc1ccc(NC(C)=O)cc1
CLASS_ASSIGNMENT: false (0)
